Here, each record is paired with measured melting point data.

# count of solved cases: 5
> print(dat)
                            compound.smiles  recorded.value
1               OCCCCCCOc1ccc(-c2ccccc2)cc1     92 to 94 °C
2      CCOC(=O)c1nccn1Cc1ccccc1[N+](=O)[O-]   107 to 111 °C
3  O=C(Nc1ccc(F)cc1F)c1cc(-c2ccc(F)cc2F)ccc1O   233 to 234 °C
4  CCOC(=O)N1CCN(C2=C(O)C(=O)c3ccccc3C2=O)CC1   115 to 118 °C
5  CCC(=O)Nc1c(C(=O)c2cc(Cl)ccn2)[nH]c2cc(Cl)ccc12   188 to 190 °C

Now for another entry.
In: Query: melting point; subject: `CCOC(=O)c1oc2cc(SC(=O)N(C)C)ccc2c1C`
Out: 112 to 114 °C
